Test system: OVCAR-8 ovarian
Experiment: NCI tumour cell line growth inhibition, 48 h
Record form. Attribute: TGI. Fill in for each entry.

Example results:
>  <compound>
CC(=O)OC[C@@H](OC(C)=O)[C@H](OC(C)=O)[C@@H]1OC(C)(C)O[C@@H]1C1SCCCS1

>  <quantity.name>
TGI

>  <reported>
> 100 µM

$$$$
>  <compound>
CN/N=C(\C)C(CN(C)C)C(c1ccccc1)c1c(O)c2ccccc2oc1=O (centres undefined)

>  <quantity.name>
TGI

>  <reported>
> 100 µM

$$$$

# batch: return TGI for each of the 7 compounds below
1. Cn1c(=O)c2nc(-c3ccc(Cl)cc3)oc2n(C)c1=O
2. Cc1ccc(NC(=O)CSc2nc(=O)[nH]c3nc[nH]c23)cc1
3. N#C/C(=C1\SC(N=Nc2ccccc2)C(=O)N1c1ccccc1)c1nc2ccccc2[nH]1 (centres undefined)
4. COc1cccc(C2c3cc4c(cc3OC(N3CCCC3)C2C)OCO4)c1O (centres undefined)
5. O=C(CNc1ccccc1[N+](=O)[O-])Nn1c(-c2ccccc2)nc2ccccc2c1=O
6. CC(=O)OCC1OC(Oc2cc(C)c(O)cc2C/C=C(\C)CC/C=C(\C)CC(=O)CC(C)C)C(O)C(OC(C)=O)C1OC(C)=O (centres undefined)
7. COc1ccc(/C=N\Nc2ccc([N+](=O)[O-])cn2)cc1OC

Response given:
1: > 100 µM; 2: > 100 µM; 3: > 100 µM; 4: 42 µM; 5: > 100 µM; 6: > 50 µM; 7: > 100 µM

----------
Test system: HT29 colon
Test: NCI tumour cell line growth inhibition, 48 h
quantity.name: GI50

Example results:
>  <compound>
C=C1CCC2C(C)(COC(=O)CC)C(OC(=O)CC)CCC2(C)C1C/C=C1/C(=O)OCC1OC(=O)CC (configuration not stated)

>  <GI50>
0.987 µM

$$$$
>  <compound>
O=C(OCc1ncc(-c2ccc(C(F)(F)F)cc2)c(NC2CCCCCC2)n1)c1c(F)c(F)c(F)c(F)c1F

>  <GI50>
13.8 µM

$$$$

# batch: return GI50 for each of the 4 compounds below
1. Cc1cn2c(/C=N/N=C(N)N)c(-c3cccs3)nc2s1
2. CC(C)(C)CC(C)(C)NCc1cc(C(C)(C)C)cc(CNC(C)(C)CC(C)(C)C)c1O
3. COc1cc(-c2nc(-c3nc4ccccc4[nH]3)cc3c2[nH]c2ccccc23)cc(OC)c1OC
4. COc1ccc(C(=O)c2cc3c(N)c(C(=O)Nc4ccc(C)cc4)sc3nc2C)cc1

Response given:
1: 2.1 µM; 2: 2.4 µM; 3: 6.87 µM; 4: 2.74 µM

----------
Record form. Attribute: TGI. Fill in for each entry.
Test system: U251 CNS
Test: NCI tumour cell line growth inhibition, 48 h

Example results:
>  <molecule>
Cc1c(C(=O)/C=C/c2ccc(N(C)C)cc2)c(=O)n(-c2ccccc2)n1C

>  <TGI>
> 100 µM

$$$$
>  <molecule>
COc1ccc2nc3cc([N+](=O)[O-])ccc3c(NCCCN(C)C)c2c1

>  <TGI>
0.375 µM

$$$$
>  <molecule>
CCOC(=O)CC1(c2cccc3ccccc23)OC(=O)c2ccccc21 (stereo not drawn)

>  <TGI>
> 100 µM

$$$$
>  <molecule>
O=C(N/N=C(/COc1ccc([N+](=O)[O-])cc1)N=Cc1ccncc1)c1ccncc1

>  <TGI>
> 100 µM

$$$$
>  <molecule>
Cc1cc(=O)oc2c(C)c(OCCCOc3ccc4c(C)cc(=O)oc4c3C)ccc12

>  <TGI>
> 100 µM

$$$$
>  <molecule>
O=c1c(Cl)c(Cl)c(=O)c2sc3cc(Cl)ccc3[nH]c1=2

>  <TGI>
> 100 µM

$$$$
>  <molecule>
C=C1C(=O)O[C@@H]2C=C(C)C3=CC(=O)[C@](C)(C[C@H](OC(=O)/C(C)=C\C)[C@@H]12)O3

>  <TGI>
4.85 µM

$$$$
>  <molecule>
COC(C(=O)NCCCCNC(=O)C(OC)c1ccccc1)c1ccccc1 (stereo not drawn)

>  <TGI>
> 100 µM

$$$$

# batch: return TGI for each of the 8 molecules below
1. CC(=O)On1c(-c2ccccc2-c2nc3ccccc3n2OC(C)=O)nc2ccccc21
2. CCOP(=O)(OCC)C(C#N)Cc1ccco1 (stereo not drawn)
3. c1c[nH]c(C23C4C5C6C4C2C6C53)n1 (stereo not drawn)
4. Nc1ccn(C2OC(COC(=O)C34CC5CC(CC(C5)C3)C4)C(O)C2O)c(=O)n1 (stereo not drawn)
5. CC(=O)OC[C@@H](OC(C)=O)[C@H](OC(C)=O)[C@@H]1OC(C)(C)O[C@@H]1C1SCCCS1
6. Cc1cc(C)c(Cn2cnc3c(Cl)ncnc32)c(C)c1CCl
7. CC(=O)OCC1OC(Oc2cc(C)c(O)cc2C/C=C(\C)CC/C=C(\C)CC(=O)CC(C)C)C(O)C(OC(C)=O)C1OC(C)=O (stereo not drawn)
8. Cn1c(=O)c2nc(-c3ccc(Cl)cc3)oc2n(C)c1=O

Response given:
1: > 100 µM; 2: > 10 µM; 3: > 100 µM; 4: > 100 µM; 5: > 100 µM; 6: 45.4 µM; 7: 41.9 µM; 8: > 100 µM

# batch: return TGI for each of the 3 molecules below
1. CCc1cccc(CC)c1NC(=O)C1=C(C)NC(C)=C(C(=O)Nc2c(CC)cccc2CC)C1c1ccc([N+](=O)[O-])cc1
2. Clc1ccc(C(SCc2ccccc2)SCc2ccccc2)cc1
3. COc1ccc(C2C3COc4ccccc4C3=NN2c2ccccc2)cc1 (stereo not drawn)

Response given:
1. > 100 µM
2. > 10 µM
3. > 100 µM

----------
Tested on: HOP-92 NSCLC
Experiment: NCI tumour cell line growth inhibition, 48 h
Record form. Attribute: TGI. Fill in for each entry.

Example results:
>  <compound>
COC(C(=O)NCCCCNC(=O)C(OC)c1ccccc1)c1ccccc1 (stereo unspecified)

>  <TGI>
> 100 µM

$$$$
>  <compound>
c1csc(C[N+]23CN4CN(CN(C4)C2)C3)c1

>  <TGI>
44.9 µM

$$$$

# batch: return TGI for each of the 4 compounds below
1. Cc1noc(NC2=CC(=O)C(=O)c3ccccc32)c1C
2. O=C(O)CCC(=O)c1ccc(Cl)cc1
3. COC(=O)Cc1ccc(Oc2cnc3cc(F)c(F)cc3n2)cc1
4. CC(=O)OCC1OC(Oc2cc(C)c(O)cc2C/C=C(\C)CC/C=C(\C)CC(=O)CC(C)C)C(O)C(OC(C)=O)C1OC(C)=O (stereo unspecified)

Response given:
1. 78.1 µM
2. > 100 µM
3. > 100 µM
4. > 50 µM

----------
Test system: K-562 leukemia
Experiment: NCI tumour cell line growth inhibition, 48 h
quantity.name: TGI

Example results:
>  <molecule>
COc1ccc(N2C(=O)C3c4[nH]c5ccc(F)cc5c4C4CCC(c5ccccc5)CC4C3C2=O)cc1 (stereo not given)

>  <target.or.system>
K-562 leukemia

>  <TGI>
14.2 µM

$$$$
>  <molecule>
Cc1cc(=O)oc2c(C)c(OCCCOc3ccc4c(C)cc(=O)oc4c3C)ccc12

>  <target.or.system>
K-562 leukemia

>  <TGI>
> 100 µM

$$$$
>  <molecule>
CC1(C)C2CC(=O)C1(C)C(OCc1ccccc1)C2 (stereo not given)

>  <target.or.system>
K-562 leukemia

>  <TGI>
77.6 µM

$$$$
>  <molecule>
CC(=O)N=C1N(/C=C2\C(=O)Oc3ccccc3C2=O)C(=O)/C(=C/c2ccc(Cl)cc2Cl)N1C

>  <target.or.system>
K-562 leukemia

>  <TGI>
> 100 µM

$$$$
>  <molecule>
CC(C)C(N)=O

>  <target.or.system>
K-562 leukemia

>  <TGI>
> 5000 µM

$$$$
>  <molecule>
COc1c(O)cc2c(c1O)C(=O)/C(=C/c1ccc(O)cc1)CO2

>  <target.or.system>
K-562 leukemia

>  <TGI>
95.2 µM

$$$$
>  <molecule>
Cc1cn2c(/C=N/N=C(N)N)c(-c3cccs3)nc2s1

>  <target.or.system>
K-562 leukemia

>  <TGI>
5.43 µM

$$$$
>  <molecule>
Cc1cc(N(CCC#N)S(C)(=O)=O)ccc1C=Nc1ccc(C(=O)NN2C(=O)/C(=C/c3ccc(N(CCC#N)CCC#N)cc3C)N=C2c2cc([N+](=O)[O-])ccc2Cl)cc1

>  <target.or.system>
K-562 leukemia

>  <TGI>
> 100 µM

$$$$

# batch: return TGI for each of the 2 molecules below
1. C=C1C(=O)O[C@H]2[C@@H](O)[C@H](C)CCC[C@]3(C)O[C@H]3CC[C@@]3(C)O[C@@H]3C[C@@H]12
2. O=C1/C(=C\c2ccccn2)c2ccccc2N1c1c(Cl)cccc1Cl

Response given:
["3.25 µM", "> 100 µM"]
